B1: PEX5 peptide 110-125 (Peroxisomal targeting signal 1 receptor), 16-mer library wild type / PEX14 Pex14 (PEX14 PEX14, residues 16-84) (parent)
chain 1: ADLALSENWAQEFLAA
chain 2: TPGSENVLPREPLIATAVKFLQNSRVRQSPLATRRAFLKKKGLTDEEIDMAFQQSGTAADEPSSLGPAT

Variants of: B1
Assay: proteomic peptide phage display deep mutational scan (ProP-PD DMS): M13 P8 16-mer library selected against immobilised GST-tagged bait for four days (rounds), NGS of the eluted pools per day and pseudo-replica
Conditions: with PEX14 Pex14 (PEX14 PEX14, residues 16-84); bait immobilised on MaxiSorp plates (10 µg), library pre-cleared on GST, 2 h binding at 4 °C, five washes; one round per day, days 1-4; value from days 2 and 3; scale: average fractional NGS count over selection days 2 and 3
MEASUREMENT_KIND: screen value
The reply should be a number, written without any unit.

chain 1 ASLALSENWAQEFLAA [chain 1 D2S] :: 0
chain 1 WDLALSENWAQEFLAA [chain 1 A1W] :: 0

Query string: GET /values?readout=screen value&item= chain 1 ADLALSENWAQEFLTA [chain 1 A15T]
Result string: 0.000397
